Overview of recorded GLP-1 activity (EC50, pM) for various binders
# target or system: human GLP-1 receptor (human, UniProt P43220 24-463)
# protocol details: cell-based or functional assay

The following binders have reported results that may help.
MLC075 (ligand, Moiety C (HOOC-(CH2)20-CO-gGlu-2XADO-EDA-CO-CH2) on 41C of Linker (72C of fusion polypeptide)) HGEGTFTSDVSSYLEEQAAKEFIAWLVRGGGGQEPGAQPGQEPGAQPGQEPGAQPGQEPGAQPGQEPGAQPCQEPGAQPGAQPGAQPGAQPGAQPGAQPGAQPGAQPGAQPARQGDHCPLGPGRCCRLHTVRASLEDLGWADWVLSPREVQVTMCIGACPSQFRAANLHAQIKTSLHRLKPDTVPAPCCVPASYNPMVLIQKTDTGVSLQTYDDLLAKDCHCI; 1.3 pM
MLC022 (ligand) HGEGTFTSDVSSYLEEQAAKEFIAWLVRGGGGQEPGQEPGQEPGQEPGQEPGQEPARQGDHCPLGPGRCCRLHTVRASLEDLGWADWVLSPREVQVTMCIGACPSQFRAANLHAQIKTSLHRLKPDTVPAPCCVPASYNPMVLIQKTDTGVSLQTYDDLLAKDCHCI; 6.7 pM

## Input Form field: reported GLP-1 activity (EC50, pM) of MLC124 (ligand) HGEGTFTSDVSSYLEEQAAKEFIAWLVRGGGGQEPGAQPGQEPGAQPGQEPGAQPGQEPGAQPGQEPGAQPGQEPGAQPGAQPGAQPGAQPARQGDHCPLGPGRCCRLHTVRASLEDLGWADWVLSPREVQVTMCIGACPSQFRAANLHAQIKTSLHRLRPDTVPAPCCVPASYNPMVLIQRTDTGVSLQTYDDLLARDCHCI
## Output 2.5 pM
